Data provenance: patent US4345938A

system: Monochoria vaginalis; assay: Field transplant rice test, applied 9 DAT, MV; format: in vivo; conditions: Pontederia vaginalis, 216 h, 0.75 Kg/Ha, 3 WAT, read-out: Percent Inhibition, MV
observed property: inhibition at 750 g/ha (%)
Answers are plain numbers, in %.

Please supply inhibition at 750 g/ha for each of the following items, keeping them in order.
1. CCCCOc1cccc(CC)c1N(C)C(=O)CCl [Example 1]
2. CCCCOCN(C(=O)CCl)c1c(CC)cccc1CC [Compound A]
3. CCCCOCN(C(=O)CCl)c1c(C)cccc1C(C)(C)C [Compound C]
4. CCCCOCCN(C(=O)CCl)c1c(CC)cccc1CC [Compound B]
5. CCCOCCN(C(=O)CCl)c1c(CC)cccc1CC [Compound D]

(A)
[100, 92, 100, 97, 100]

###

tested on: Echinochloa crus-galli; assay: Field transplant rice test, applied 0 DAT, EC; assay type: in vivo; conditions: 0 h, 0.375 Kg/Ha, 2 WAT, read-out: Percent Inhibition, EC
Respond with label 1 for inhibition at 375 g/ha values of 70% and above, label 0 for values below.

These solved cases illustrate the format of a correct answer.
INSERT INTO measurements (structure, assigned_label) VALUES
  ('CCCCOCN(C(=O)CCl)c1c(CC)cccc1CC', 'label 0'),
  ('CCCCOCCN(C(=O)CCl)c1c(CC)cccc1CC', 'label 0'),
  ('CCCOCCN(C(=O)CCl)c1c(CC)cccc1CC', 'label 1'),
  ('CCCCOCN(C(=O)CCl)c1c(C)cccc1C(C)(C)C', 'label 1');

Okay, next one:
(Q) Check if inhibition at 375 g/ha >= 70% (inclusive). Item: `CCCCOc1cccc(CC)c1N(C)C(=O)CCl`
(A) label 1

###

tested on: Sagittaria trifolia; test: Field transplant rice test, applied 9 DAT, ST; assay type: in vivo; details: 216 h, 1.5 Kg/Ha, 5 WAT, read-out: Percent Inhibition, ST
observed property: inhibition at 1500 g/ha (%)
Give bare numbers, in %.

A selection of reference data follows.
INSERT INTO measurements (structure, observed_property, unit_info, measurement) VALUES
  ('CCCCOCN(C(=O)CCl)c1c(CC)cccc1CC', 'inhibition at 1500 g/ha', '%', 5),
  ('CCCOCCN(C(=O)CCl)c1c(CC)cccc1CC', 'inhibition at 1500 g/ha', '%', 25),
  ('CCCCOc1cccc(CC)c1N(C)C(=O)CCl', 'inhibition at 1500 g/ha', '%', 13),
  ('CCCCOCCN(C(=O)CCl)c1c(CC)cccc1CC', 'inhibition at 1500 g/ha', '%', 25);

Then this molecule:
(Q) Recorded inhibition at 1500 g/ha of `CCCCOCN(C(=O)CCl)c1c(C)cccc1C(C)(C)C` , please.
(A) 17

###

Tested on: Sagittaria trifolia
Experiment: Field transplant rice test, applied 9 DAT, ST
Type: in vivo
Conditions: 216 h, 3.0 Kg/Ha, 7 WAT, read-out: Percent Inhibition, ST
From the text: The test data in Table III for all compounds was obtained under identical test conditions. The weeds used in the tests herein have the following abbreviations in the tables: Echinochloa crus-galli (EC), Monochloria vaginalis (MV), Cyperus Serotinus (CS), Eleocharis Kuroguwai (EK) and Sagittaria trifolia (ST). […]
So basically: inhibition at 3000 g/ha at 10% or higher? That is Yes. Lower than 10%? That is No.

INSERT INTO measurements (structure, assigned_label) VALUES
  ('CCCCOCN(C(=O)CCl)c1c(C)cccc1C(C)(C)C', 'No');

(Q) Hi team, for `CCCOCCN(C(=O)CCl)c1c(CC)cccc1CC` , is the recorded inhibition at 3000 g/ha at or above 10%?
(A) Yes

(Q) Please indicate if the recorded inhibition at 3000 g/ha for `CCCCOCCN(C(=O)CCl)c1c(CC)cccc1CC` meets or exceeds 10%.
(A) Yes

(Q) Reported inhibition at 3000 g/ha at or above 10%? `CCCCOCN(C(=O)CCl)c1c(CC)cccc1CC`
(A) Yes

(Q) Has `CCCCOc1cccc(CC)c1N(C)C(=O)CCl` a recorded inhibition at 3000 g/ha greater than or equal to 10%?
(A) Yes
